Overview of recorded pIC50 for various compounds
target: integrin αvβ3 (Homo sapiens, UniProt P05106+P06756); experiment: integrin αvβ3 binding assay (Pharmacological Example 1 in WO 99/38849)
Sequence (P06756 31-1048): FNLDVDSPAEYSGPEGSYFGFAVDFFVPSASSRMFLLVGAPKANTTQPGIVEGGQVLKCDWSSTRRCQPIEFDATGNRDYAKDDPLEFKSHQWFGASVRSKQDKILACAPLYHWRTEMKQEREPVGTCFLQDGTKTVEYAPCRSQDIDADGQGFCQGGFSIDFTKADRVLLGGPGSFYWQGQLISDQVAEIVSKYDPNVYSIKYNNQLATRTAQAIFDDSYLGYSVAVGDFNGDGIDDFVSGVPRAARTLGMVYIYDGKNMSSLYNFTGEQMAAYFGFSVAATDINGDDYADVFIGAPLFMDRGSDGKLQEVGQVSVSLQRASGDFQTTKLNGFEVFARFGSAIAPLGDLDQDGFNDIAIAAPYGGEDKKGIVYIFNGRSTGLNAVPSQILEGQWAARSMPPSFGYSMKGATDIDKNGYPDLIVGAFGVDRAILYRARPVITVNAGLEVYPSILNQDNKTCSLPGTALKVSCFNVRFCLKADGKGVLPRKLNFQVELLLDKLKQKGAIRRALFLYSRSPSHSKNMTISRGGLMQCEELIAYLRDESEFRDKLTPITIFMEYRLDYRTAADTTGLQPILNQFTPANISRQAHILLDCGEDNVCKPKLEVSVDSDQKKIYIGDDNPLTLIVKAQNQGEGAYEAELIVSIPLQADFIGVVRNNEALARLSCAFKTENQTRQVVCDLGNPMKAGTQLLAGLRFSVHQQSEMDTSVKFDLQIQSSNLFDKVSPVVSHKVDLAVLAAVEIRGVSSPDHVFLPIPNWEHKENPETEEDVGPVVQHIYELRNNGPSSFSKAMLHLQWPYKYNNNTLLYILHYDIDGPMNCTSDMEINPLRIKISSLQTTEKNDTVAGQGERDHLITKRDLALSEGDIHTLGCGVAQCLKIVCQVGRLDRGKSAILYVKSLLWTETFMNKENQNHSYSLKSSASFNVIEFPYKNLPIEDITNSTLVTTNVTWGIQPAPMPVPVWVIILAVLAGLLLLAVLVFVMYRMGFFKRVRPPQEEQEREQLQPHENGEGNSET
Sequence (P05106 27-788): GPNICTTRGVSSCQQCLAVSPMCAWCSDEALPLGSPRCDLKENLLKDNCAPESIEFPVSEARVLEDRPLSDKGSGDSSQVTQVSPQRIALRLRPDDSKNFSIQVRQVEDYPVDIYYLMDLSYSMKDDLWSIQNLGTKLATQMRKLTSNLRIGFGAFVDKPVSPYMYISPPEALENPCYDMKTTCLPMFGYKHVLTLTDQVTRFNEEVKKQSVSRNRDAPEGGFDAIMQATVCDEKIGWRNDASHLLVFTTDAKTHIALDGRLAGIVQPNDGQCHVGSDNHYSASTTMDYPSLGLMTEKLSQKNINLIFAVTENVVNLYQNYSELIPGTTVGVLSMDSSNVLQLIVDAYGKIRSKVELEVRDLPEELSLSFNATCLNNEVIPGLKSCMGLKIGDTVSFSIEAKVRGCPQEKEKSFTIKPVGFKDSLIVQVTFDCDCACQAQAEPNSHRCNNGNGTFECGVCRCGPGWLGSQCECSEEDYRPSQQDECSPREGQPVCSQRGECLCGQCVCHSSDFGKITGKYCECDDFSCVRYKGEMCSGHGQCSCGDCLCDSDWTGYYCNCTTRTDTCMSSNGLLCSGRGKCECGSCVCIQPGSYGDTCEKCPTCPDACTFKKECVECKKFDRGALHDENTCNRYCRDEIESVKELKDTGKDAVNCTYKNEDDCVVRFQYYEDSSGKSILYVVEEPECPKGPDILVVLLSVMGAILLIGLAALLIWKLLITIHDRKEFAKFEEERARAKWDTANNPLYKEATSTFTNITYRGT
To interpret pIC50, take it as minus log10 of a concentration measured in moles per litre.

>>> print(df.to_string())
                                   compound  value_measured
0  O=C(NC[C@@H](NS(=O)(=O)c1ccccc1)C(=O)O)c1ccc(N2CCCC(NC3=NCCCN3)C2)cc1 (some centres unmarked) [formula (IX)]            9.28

Ask: Give the measured pIC50 of O=C(NC[C@@H](NS(=O)(=O)c1cccs1)C(=O)O)c1ccc(N2CCCC(NC3=NCCCN3)C2)cc1 (some centres unmarked) [formula (XI)] .
Result: 9.85

Ask: Ok, now O=C(NCC(NS(=O)(=O)c1ccccc1)C(=O)O)c1ccc(OCCNC2=NCCCN2)cc1 (stereo in doubt) [formula (VI)]
Result: 9.41

Ask: Ok, now O=C(NC[C@@H](NS(=O)(=O)c1ccccc1)C(=O)O)c1ccc(N2CCCC(NC3=NCCCN3)C2)cc1F (some centres unmarked) [formula (X)]
Result: 9.80

Ask: Ok, now COc1cc(C(=O)NCC(NS(=O)(=O)c2ccccc2)C(=O)O)ccc1N1CCC(NC2=NCCCN2)CC1 (stereo in doubt) [formula (VIII)]
Result: 9.85

Ask: Ok, now O=C(NCC(NS(=O)(=O)c1ccccc1)C(=O)O)c1ccc(N2CCC(NC3=NCCCN3)CC2)cc1 (stereo in doubt) [formula (V)]
Result: 8.92

Ask: Ok, now O=C(NCC(NS(=O)(=O)c1ccccc1)C(=O)O)c1ccc(N2CCC(NC3=NCCCN3)CC2)c(F)c1 (stereo in doubt) [formula (IV)]
Result: 9.70

Ask: Ok, now O=C(NC[C@H](NS(=O)(=O)c1ccc(O)cc1)C(=O)O)c1ccc(N2CCC(NC3=NCCCN3)CC2)c(F)c1 [formula (VII)]
Result: 10.18

----------
test system: hamster vascular smooth muscle cells; assay: adhesion of hamster vascular smooth muscle cells to rat vitronectin; type: cell-based; details: Mesocricetus auratus, read-out: concentration (IC50) necessary for inhibition of adhesion to vitronectin
quantity-kind: IC50 (nM)
Could you give me the number in nM? Just the number is fine.

Ask: Give the measured IC50 of O=C(NCC(NS(=O)(=O)c1ccccc1)C(=O)O)c1ccc(N2CCC(NC3=NCCCN3)CC2)c(F)c1 (stereo in doubt) [formula (IV)] .
Result: 730

----------
test system: rat vascular smooth muscle cells; assay: adhesion of rat vascular smooth muscle cells to rat vitronectin; assay type: cell-based; conditions: read-out: concentration (IC50) necessary for inhibition of adhesion to vitronectin
quantity-kind: pIC50
To interpret pIC50, take it as minus log10 of a concentration measured in moles per litre.

>>> df
                                   compound  value_measured
0  O=C(NC[C@@H](NS(=O)(=O)c1ccccc1)C(=O)O)c1ccc(N2CCCC(NC3=NCCCN3)C2)cc1F (stereo partly shown) [formula (X)]            7.02
1  O=C(NCC(NS(=O)(=O)c1ccccc1)C(=O)O)c1ccc(N2CCC(NC3=NCCCN3)CC2)cc1 (stereo in doubt) [formula (V)]            6.10
2  O=C(NCC(NS(=O)(=O)c1ccccc1)C(=O)O)c1ccc(OCCNC2=NCCCN2)cc1 (stereo in doubt) [formula (VI)]            6.35
3  O=C(NCC(NS(=O)(=O)c1ccccc1)C(=O)O)c1ccc(N2CCC(NC3=NCCCN3)CC2)c(F)c1 (stereo in doubt) [formula (IV)]            6.64
4  O=C(NC[C@H](NS(=O)(=O)c1ccc(O)cc1)C(=O)O)c1ccc(N2CCC(NC3=NCCCN3)CC2)c(F)c1 [formula (VII)]            6.19

Ask: Give the measured pIC50 of O=C(NC[C@@H](NS(=O)(=O)c1ccccc1)C(=O)O)c1ccc(N2CCCC(NC3=NCCCN3)C2)cc1 (stereo partly shown) [formula (IX)] .
Result: 7.02

Ask: Ok, now COc1cc(C(=O)NCC(NS(=O)(=O)c2ccccc2)C(=O)O)ccc1N1CCC(NC2=NCCCN2)CC1 (stereo in doubt) [formula (VIII)]
Result: 6.12

----------
test system: platelet aggregation; assay: inhibition of platelet aggregation, rat; type: cell-based; conditions: read-out: concentration (IC50) necessary for inhibition of platelet aggregation
Overview of recorded IC50 for various compounds

Worked examples follow.
>>> df
                                   compound  value_measured
0  O=C(NCC(NS(=O)(=O)c1ccccc1)C(=O)O)c1ccc(N2CCC(NC3=NCCCN3)CC2)cc1 (stereo in doubt)           13 µM
1  O=C(NCC(NS(=O)(=O)c1ccccc1)C(=O)O)c1ccc(OCCNC2=NCCCN2)cc1 (stereo in doubt)        > 100 µM
2  O=C(NC[C@H](NS(=O)(=O)c1ccc(O)cc1)C(=O)O)c1ccc(N2CCC(NC3=NCCCN3)CC2)c(F)c1        > 100 µM

Lab note: next compound to report on.
Ask: Give the measured IC50 of O=C(NCC(NS(=O)(=O)c1ccccc1)C(=O)O)c1ccc(N2CCC(NC3=NCCCN3)CC2)c(F)c1 (stereo in doubt) .
Result: > 100 µM
